subject of test: recombinant human TFPI (tissue factor pathway inhibitor) (human, UniProt P10646 29-304)
protocol notes: cell-based or functional assay
Entries and their measured FXa assay % of FXa alone, 10 nM Ab, 10 nM TFPI follow.
The answer is to be given in %; state only the numeric part.

>  <binder>
clone 1 (antibody, V domains shown) VH: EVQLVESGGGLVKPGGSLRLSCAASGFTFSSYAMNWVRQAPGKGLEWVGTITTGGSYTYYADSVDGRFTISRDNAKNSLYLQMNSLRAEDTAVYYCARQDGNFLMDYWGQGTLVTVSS VL: DVVMTQTPLSLPVTLGQPASISCKSSPSLLDSDGKTYLNWLQQRPGQSPKRLIYLVSKLDSGVPDRFTGSGSGTDFTLKISRVEAEDVGVYYCWQGTHFPFTFGQGTKVEIKR

>  <reading>
50.1

$$$$
>  <binder>
clone 10 (antibody, V domains shown) VH: EVQLVESGGGLVKPGGSLRLSCAASGFTFSSYAMNWVRQAPGKGLEWVSTITTGGSYTYYADSVQGRFTISRDNAKNSLYLQMNSLRAEDTAVYYCARQDGNFLMDYWGQGTLVTVSS VL: DVVMTQTPLSLPVTLGQPASISCKSSPSLLDVDGKTYLNWLQQRPGQSPKRLIYLVSKLDSGVPDRFTGSGSGTDFTLKISRVEAEDVGVYYCWQGTHFPFTFGQGTKVEIKR

>  <reading>
11.8

$$$$
>  <binder>
clone 1023 (antibody, V domains shown, scFv on yeast at selection; human IgG4/kappa IgG as purified) VH: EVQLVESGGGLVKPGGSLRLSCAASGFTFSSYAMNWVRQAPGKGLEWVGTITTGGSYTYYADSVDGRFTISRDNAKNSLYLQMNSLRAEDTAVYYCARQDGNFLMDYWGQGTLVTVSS VL: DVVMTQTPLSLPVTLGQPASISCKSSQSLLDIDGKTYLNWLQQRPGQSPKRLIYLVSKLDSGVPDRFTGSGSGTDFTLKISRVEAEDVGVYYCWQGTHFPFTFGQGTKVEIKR

>  <reading>
82.3

$$$$

Lookup: // lookup FXa assay % of FXa alone, 10 nM Ab, 10 nM TFPI for clone 7 (antibody, V domains shown) VH: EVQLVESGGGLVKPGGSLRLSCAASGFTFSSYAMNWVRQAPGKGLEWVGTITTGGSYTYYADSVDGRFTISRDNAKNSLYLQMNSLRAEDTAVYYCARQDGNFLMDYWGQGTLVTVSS VL: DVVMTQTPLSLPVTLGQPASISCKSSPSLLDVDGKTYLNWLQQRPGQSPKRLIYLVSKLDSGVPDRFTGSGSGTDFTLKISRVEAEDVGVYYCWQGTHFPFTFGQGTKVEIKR
Found: 72.1
